Can you tell me Particle size D50μ for the items I'm about to list?
assay: Particle size (laser particle-size distribution analysis); format: physicochemical; conditions: Test in Mobile Minor unit; IN/OUT temperature differs per test
Unit μ implied. Number only.

**Query** What Particle size D50μ value was documented for this molecule, C[S+](CC[C@H](N)C(=O)[O-])C[C@H]1O[C@@H](n2cnc3c(N)ncnc32)[C@H](O)[C@@H]1O.O=S(=O)(O)CCCCS(=O)(=O)O (single isomer, unassigned) [Example 3, SAMe 1,4-butanedisulphonate] ?
**Result** 9

**Query** Another molecule to check: C[S+](CC[C@H](N)C(=O)[O-])C[C@H]1O[C@@H](n2cnc3c(N)ncnc32)[C@H](O)[C@@H]1O.O=S(=O)(O)CCCCS(=O)(=O)O (single isomer, unassigned) [Example 7, SAMe 1,4-butanedisulphonate, reference compound]
**Result** 10

**Query** Another molecule to check: C[S+](CC[C@H](N)C(=O)[O-])C[C@H]1O[C@@H](n2cnc3c(N)ncnc32)[C@H](O)[C@@H]1O.O=S(=O)(O)CCCCS(=O)(=O)O (single isomer, unassigned) [Example 4, SAMe 1,4-butanedisulphonate]
**Result** 8

**Query** Another molecule to check: C[S+](CC[C@H](N)C(=O)[O-])C[C@H]1O[C@@H](n2cnc3c(N)ncnc32)[C@H](O)[C@@H]1O.O=S(=O)(O)CCCCS(=O)(=O)O (single isomer, unassigned) [Example 5, SAMe 1,4-butanedisulphonate]
**Result** 9
